Tested Target: T1, CAPRIN-1 protein expressed on the membrane surface of human cancer cells (human, UniProt Q14444 2-709)
T1 sequence (looked up): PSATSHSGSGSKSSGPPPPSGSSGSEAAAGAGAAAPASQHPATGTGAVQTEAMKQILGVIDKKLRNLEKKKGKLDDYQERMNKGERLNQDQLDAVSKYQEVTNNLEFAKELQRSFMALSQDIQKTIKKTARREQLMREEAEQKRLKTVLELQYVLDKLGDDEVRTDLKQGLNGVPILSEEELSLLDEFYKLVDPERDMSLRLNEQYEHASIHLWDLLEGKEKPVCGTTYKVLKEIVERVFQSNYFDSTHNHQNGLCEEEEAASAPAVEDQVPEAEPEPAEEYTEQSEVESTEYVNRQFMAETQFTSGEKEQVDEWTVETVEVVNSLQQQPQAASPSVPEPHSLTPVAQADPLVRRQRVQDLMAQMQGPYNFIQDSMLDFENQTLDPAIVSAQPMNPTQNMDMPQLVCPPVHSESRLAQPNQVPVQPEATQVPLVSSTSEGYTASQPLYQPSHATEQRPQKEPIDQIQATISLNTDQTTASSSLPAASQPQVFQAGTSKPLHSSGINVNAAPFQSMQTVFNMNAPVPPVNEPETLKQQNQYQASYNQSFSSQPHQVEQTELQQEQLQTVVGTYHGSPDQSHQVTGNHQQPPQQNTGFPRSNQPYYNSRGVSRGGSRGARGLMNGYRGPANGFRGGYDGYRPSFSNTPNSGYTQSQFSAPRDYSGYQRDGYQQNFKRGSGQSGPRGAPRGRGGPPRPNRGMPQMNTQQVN
Test Details: cell-based or functional assay
Test Readout: ADCC cytotoxic activity (51Cr release) on G-361

# get_value(readout='ADCC cytotoxic activity (51Cr release) on G-361', item= humanized antibody #4 (antibody, V domains shown) VH: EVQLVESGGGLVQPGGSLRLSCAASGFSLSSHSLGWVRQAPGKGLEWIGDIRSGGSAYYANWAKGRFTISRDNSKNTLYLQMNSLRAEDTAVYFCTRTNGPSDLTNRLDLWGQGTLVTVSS VL: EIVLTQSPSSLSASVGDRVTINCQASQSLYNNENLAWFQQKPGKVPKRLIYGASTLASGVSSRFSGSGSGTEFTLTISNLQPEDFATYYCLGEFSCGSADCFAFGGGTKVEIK )
≥ 21%
